tested on: HIV-1LAI M184V; test: p24 reduction assay in MT-2 cells, M184V; format: cell-based; conditions: Table 3; M184V relative to wild type virus
readout label: Fold-resistance

INSERT INTO results (compound, readout_label, assay_result) VALUES
  ('O=C(O)P(=O)(O)O [PFA, phosphonoformate, reference compound]', 'Fold-resistance', '(1.7)'),
  ('CCCCCCCCCCCCCCCCCCOC[C@@H](O)COP(=O)(O)C(=O)O', 'Fold-resistance', '(0.7)'),
  ('CCCCCCCCCCCCCCCCCCOC[C@H](COP(=O)(O)C(=O)O)OCC', 'Fold-resistance', '(0.7)'),
  ('CCCCCCCCCCCCCCCCCCOC[C@H](COP(=O)(O)C(=O)O)OC', 'Fold-resistance', '(1.7)');

----------
system: HIV-1LAI K65R; experiment: p24 reduction assay in MT-2 cells, K65R; type: cell-based; conditions: Table 3; K65R relative to wild type virus
readout label: Fold-resistance

INSERT INTO measurements (molecule, target_desc, readout_label, assay_result) VALUES
  ('O=C(O)P(=O)(O)O [PFA, phosphonoformate, reference compound]', 'HIV-1LAI K65R', 'Fold-resistance', '(3.8)'),
  ('CCCCCCCCCCCCCCCCCCOC[C@H](COP(=O)(O)C(=O)O)OC', 'HIV-1LAI K65R', 'Fold-resistance', '(3.3)'),
  ('CCCCCCCCCCCCCCCCCCOC[C@H](COP(=O)(O)C(=O)O)OCC', 'HIV-1LAI K65R', 'Fold-resistance', '(4.5)'),
  ('CCCCCCCCCCCCCCCCCCOC[C@@H](O)COP(=O)(O)C(=O)O', 'HIV-1LAI K65R', 'Fold-resistance', '(8.2)');

----------
system: MT-2 cells; assay: In vitro selectivity index in MT-2 cells; type: cell-based; conditions: (50% cytotoxic dose/50% effective dose)×100
readout label: Selectivity Index
Give a plain numeric answer without units written out.

INSERT INTO assay_data (molecule, readout_label, assay_result) VALUES
  ('CCCCCCCCCCCCCCCCCCOC[C@@H](O)COP(=O)(O)C(=O)O', 'Selectivity Index', 781),
  ('CCCCCCCCCCCCCCCCCCOC[C@H](COP(=O)(O)C(=O)O)OCC', 'Selectivity Index', 1905);

The recorded Selectivity Index for entry O=C(O)P(=O)(O)O [PFA, phosphonoformate, reference compound] equals 137
